Cited source for all entries: PubChem BioAssay AID1324

# TEST SYSTEM: glutathione S-transferase (GST-GSH binding)
# EXPERIMENT SUMMARY: GST–glutathione interaction disruption – biochemical, multiplex beads, flow cytometry, HPSMTB buffer, profiling panel (AID 1324);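 further: glutathione beads loaded with GST-green fluorescent protein and no fluorescent Bim peptide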
# CONDITION: multiplex bead flow cytometry, MCF, concentration not given here
Active and inactive are the calls of the source. How the calls were made is not given here.
EXPERIMENTAL READOUT: percent span inhibition

Observe how each entry below is paired with its result.
OCCC1CN(Cc2nc3c(s2)CCCC3)CCN1Cc1ccsc1 (stereo unspecified) : inactive
CCN(CC)c1ccc(NC(=O)COc2ccccc2C)cc1S(=O)(=O)Nc1ccccc1OC : inactive
CCOC(=O)c1cccc(Nc2ncnc3ccccc23)c1 : inactive
COc1ccccc1NC(=O)CSc1nnc(-c2ccco2)n1Cc1ccco1 : inactive
COc1cccc(NC(=O)CSc2nncn2N)c1 : inactive
Cc1ccccc1/C=N/Nc1ccnc2cc(Cl)ccc12 : inactive
CCOC(=O)C1=C(Cc2ccc(C)cc2)C(=O)c2ccccc2C1=O : inactive
Cc1ccc(NC2=C(Cl)C(=O)c3ccccc3C2=O)cc1 : inactive
O=C(c1cc(=O)c2ccccc2o1)N1CCN(c2ccccc2F)CC1 : inactive
Cc1noc(C)c1COc1ccc(C(=O)Nc2cccnc2)cc1 : inactive

Request: Give the measured percent span inhibition for "O=S1(=O)N=C(N(CCO)/N=C/C=C/c2ccccc2)c2ccccc21"
Response: inactive
